- Test system: Staphylococcus aureus
- assay.summary: Antimicrobial activity against methicillin-resistant Staphylococcus aureus at […] by disk diffusion method
- Type: functional
Activity calls are given as the source filed them. No cut-off for these calls is given here.
experimental.readout: Activity

Cc1ccccc1NS(=O)(=O)c1ccc(C(=O)O)cc1 ... inactive
Nc1ccc(S(=O)(=O)Nc2ccccc2)cc1 ... inactive
Cc1cccc(NS(=O)(=O)c2ccc(NS(C)(=O)=O)cc2)c1 ... inactive
